Where these numbers come from: patent US20180334496A1

# system-tested: T1, serum purified human Complement Factor D (human, UniProt P00746 26-253)
# T1 construct: Serum purified protein flowed over the captured antibodies; also called CFD; human CFD
# T1 sequence (P00746 26-253): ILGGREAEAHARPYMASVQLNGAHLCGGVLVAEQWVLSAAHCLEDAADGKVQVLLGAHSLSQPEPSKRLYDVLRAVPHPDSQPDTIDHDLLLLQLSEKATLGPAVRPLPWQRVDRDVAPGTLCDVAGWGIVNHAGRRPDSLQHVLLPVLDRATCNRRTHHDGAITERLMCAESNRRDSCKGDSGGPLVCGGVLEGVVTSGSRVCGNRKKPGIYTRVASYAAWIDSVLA
# experimental-details: SPR Biacore, antibody on protein A chip, single cycle kinetics, 25 C;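 also: antibodies captured to roughly 70 RU on the protein A surface in HBS-EP+ running buffer, with kinetic constants derived by BIAevaluation fitting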
result-type: koff (s⁻¹)
Response body: numeric value in s⁻¹, unit text excluded.

54I59D / 32W54S60W101V (antibody, V domains shown, Light label printed 32W54560W101V, read as 32W54S60W101V; also called 54I59D / 32W54560W101V) VH: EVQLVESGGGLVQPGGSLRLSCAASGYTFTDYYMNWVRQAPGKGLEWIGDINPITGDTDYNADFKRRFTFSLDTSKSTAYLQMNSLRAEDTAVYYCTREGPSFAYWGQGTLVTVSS VL: DIQLTQSPSSLSASVGDRVTITCRSSQTIVHWNGDTYLEWYQQKPGKAPNLLISKVSNRWSGVPSRFSGSGSGTDFTLTISSLQPEDFATYYCFQGSHVPVTFGQGTKVEIK: 5.37e-05

Now consider a different binder.
For the binder 28V31S54V59D / 101V (antibody, V domains shown, KCD119 TAF variant; full antibody captured on protein A) VH: EVQLVESGGGLVQPGGSLRLSCAASGYVFTSYYMNWVRQAPGKGLEWIGDINPVTGDTDYNADFKRRFTFSLDTSKSTAYLQMNSLRAEDTAVYYCTREGPSFAYWGQGTLVTVSS VL: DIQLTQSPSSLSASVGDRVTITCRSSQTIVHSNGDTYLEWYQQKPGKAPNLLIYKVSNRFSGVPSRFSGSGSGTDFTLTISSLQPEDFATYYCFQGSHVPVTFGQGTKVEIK , what koff is on record? 4.76e-05
